Molecular target: T1, human interleukin-2 receptor α-chain (human, UniProt P01589 22-240, limits assumed)
T1 construct: Recombinant human IL-2Rα protein, coated on the ELISA plate or amine-coupled to a CM5 chip; also called human IL-2Rα; hu IL-2R
T1 sequence: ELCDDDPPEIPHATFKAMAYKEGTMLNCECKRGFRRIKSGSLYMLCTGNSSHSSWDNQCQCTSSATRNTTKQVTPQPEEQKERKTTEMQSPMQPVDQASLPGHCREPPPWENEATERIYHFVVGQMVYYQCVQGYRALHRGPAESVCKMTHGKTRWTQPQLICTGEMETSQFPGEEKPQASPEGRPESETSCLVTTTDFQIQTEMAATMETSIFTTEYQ
Assay: binding ELISA, periplasmic extract 1:5 on coated human IL-2Rα, anti-c-myc detection
measuredAttribute: PE binding ELISA (OD450 nm) (OD450)
One number for each entry, in OD450.

binder	PE binding ELISA (OD450 nm) [OD450]
FJ1427_P035MP05E12 (VHH, Tested as soluble VHH in a crude periplasmic extract (P.E.); CDR3 family 1; also called Clone nr) VHH: QLQLVESGGGLVQAGDSLRLSCAASGFNFGWHAMGWFRQAPGKEREFVATITWTGRDTYYADSVRGRFTISKDNAKDTLFLQMNSLRPDDTGVYYCAKARERATWAYSEDDCDYWGQGTQVTVSS	2.15
FJ1427_P035MP05F11 (VHH, Tested as soluble VHH in a crude periplasmic extract (P.E.); CDR3 family 15; also called Clone nr; 470) VHH: QVQLVESGGGSVQAGGSLRLSCAASGRTLYSSYGMAWFRQAPGKERDFVGSISRYGTYTSYADSVKDRFTISRDNAKSTVYLQMNNTKPEDTAVYYCAAYTYSGSFYSAVKTHRDEYQYWGQGTQVTVSS	2.27

Please find the next binder below.
The binder listed as FJ1427_P035MP05F12 (VHH, Tested as soluble VHH in a crude periplasmic extract (P.E.); CDR3 family 4; also called Clone nr) VHH: QLQLVESGGGLVQAGGSLRLSCLASGLTFDGYAIGWFRQAPGKELEGVSYITGSDGSSYYADSVKGRFTISSDNAKNTVYLHMNSLKPDDAAVYYCAIDHLGSRGGYHSSWWRSSDMDLWGKGTLVTVSS shows PE binding ELISA (OD450 nm) equal to 2.19
